# assaySummary: Paclitaxel pharmacokinetics in rats after single oral dose with Compound A
# conditionNotes: rat, in vivo, 40 mg/kg
metric: AUC(0-t) (ng·h/mL)

samplesmiles=CC(=O)O[C@H]1C(=O)[C@@]2(C)[C@H]([C@H](OC(=O)c3ccccc3)[C@]3(O)C[C@H](OC(=O)[C@H](O)[C@@H](NC(=O)c4ccccc4)c4ccccc4)C(C)=C1C3(C)C)[C@]1(OC(C)=O)CO[C@@H]1C[C@@H]2O metric=AUC(0-t) obsvalue=11100

* * *

# assaySummary: clinical
# conditionNotes: human, in vivo, po, 420 mg/m2
metric: AUC(0-inf) (ng·h/mL)

samplesmiles=CC(=O)O[C@H]1C(=O)[C@@]2(C)[C@H]([C@H](OC(=O)c3ccccc3)[C@]3(O)C[C@H](OC(=O)[C@H](O)[C@@H](NC(=O)c4ccccc4)c4ccccc4)C(C)=C1C3(C)C)[C@]1(OC(C)=O)CO[C@@H]1C[C@@H]2O obsvalue=3730

* * *

# assaySummary: clinical
# conditionNotes: human, in vivo, po, 180 mg/m2
metric: MRT inf (h)

samplesmiles=CC(=O)O[C@H]1C(=O)[C@@]2(C)[C@H]([C@H](OC(=O)c3ccccc3)[C@]3(O)C[C@H](OC(=O)[C@H](O)[C@@H](NC(=O)c4ccccc4)c4ccccc4)C(C)=C1C3(C)C)[C@]1(OC(C)=O)CO[C@@H]1C[C@@H]2O obsvalue=21.9

* * *

# assaySummary: Paclitaxel pharmacokinetics in rats after single oral dose with Compound A
# conditionNotes: rat, in vivo, 40 mg/kg
metric: Cmax (µg/mL)

samplesmiles=CC(=O)O[C@H]1C(=O)[C@@]2(C)[C@H]([C@H](OC(=O)c3ccccc3)[C@]3(O)C[C@H](OC(=O)[C@H](O)[C@@H](NC(=O)c4ccccc4)c4ccccc4)C(C)=C1C3(C)C)[C@]1(OC(C)=O)CO[C@@H]1C[C@@H]2O metric=Cmax obsvalue=2.49

* * *

# assaySummary: clinical
# conditionNotes: human, in vivo, po, 180 mg/m2
metric: Vd/F (L)

samplesmiles=CC(=O)O[C@H]1C(=O)[C@@]2(C)[C@H]([C@H](OC(=O)c3ccccc3)[C@]3(O)C[C@H](OC(=O)[C@H](O)[C@@H](NC(=O)c4ccccc4)c4ccccc4)C(C)=C1C3(C)C)[C@]1(OC(C)=O)CO[C@@H]1C[C@@H]2O endpointunit=L obsvalue=6030

* * *

# assaySummary: clinical
# conditionNotes: human, in vivo, po, 120 mg/m2, Paclitaxel Cmax, Mean (SD), 120 mg/m^2, Day 2, N 3, two consecutive daily oral doses
metric: Cmax (ng/mL)

compound="CC(=O)O[C@H]1C(=O)[C@@]2(C)[C@H]([C@H](OC(=O)c3ccccc3)[C@]3(O)C[C@H](OC(=O)[C@H](O)[C@@H](NC(=O)c4ccccc4)c4ccccc4)C(C)=C1C3(C)C)[C@]1(OC(C)=O)CO[C@@H]1C[C@@H]2O [Paclitaxel]" metric=Cmax obsvalue=159

* * *

# assaySummary: clinical
# conditionNotes: human, in vivo, po, 420 mg/m2
metric: CL renal (mL/min)

compound="CC(=O)O[C@H]1C(=O)[C@@]2(C)[C@H]([C@H](OC(=O)c3ccccc3)[C@]3(O)C[C@H](OC(=O)[C@H](O)[C@@H](NC(=O)c4ccccc4)c4ccccc4)C(C)=C1C3(C)C)[C@]1(OC(C)=O)CO[C@@H]1C[C@@H]2O [Paclitaxel]" metric="CL renal" endpointunit=mL/min obsvalue=48.3

* * *

# assaySummary: Paclitaxel pharmacokinetics in rats after single oral dose with Compound A
# conditionNotes: rat, in vivo, 30 mg/kg
metric: Tmax (h)

compound="CC(=O)O[C@H]1C(=O)[C@@]2(C)[C@H]([C@H](OC(=O)c3ccccc3)[C@]3(O)C[C@H](OC(=O)[C@H](O)[C@@H](NC(=O)c4ccccc4)c4ccccc4)C(C)=C1C3(C)C)[C@]1(OC(C)=O)CO[C@@H]1C[C@@H]2O [Paclitaxel]" endpointunit=h obsvalue=1.2

* * *

# assaySummary: in vivo
# conditionNotes: dog, po, 6 mg/kg, t1/2, dogs, Fasted, paclitaxel 6 mg/kg with Compound A 3 mg/kg, single oral dose
metric: half-life (h)

samplesmiles=CC(=O)O[C@H]1C(=O)[C@@]2(C)[C@H]([C@H](OC(=O)c3ccccc3)[C@]3(O)C[C@H](OC(=O)[C@H](O)[C@@H](NC(=O)c4ccccc4)c4ccccc4)C(C)=C1C3(C)C)[C@]1(OC(C)=O)CO[C@@H]1C[C@@H]2O endpointunit=h obsvalue=9.4

* * *

# assaySummary: clinical
# conditionNotes: human, in vivo, po, 180 mg/m2
metric: CL renal (mL/min)

molecule="CC(=O)O[C@H]1C(=O)[C@@]2(C)[C@H]([C@H](OC(=O)c3ccccc3)[C@]3(O)C[C@H](OC(=O)[C@H](O)[C@@H](NC(=O)c4ccccc4)c4ccccc4)C(C)=C1C3(C)C)[C@]1(OC(C)=O)CO[C@@H]1C[C@@H]2O [Paclitaxel]" metric="CL renal" obsvalue=30

* * *

# assaySummary: Paclitaxel pharmacokinetics in rats after single oral dose with Compound A
# conditionNotes: rat, in vivo, 20 mg/kg
metric: Tmax (h)

compound="CC(=O)O[C@H]1C(=O)[C@@]2(C)[C@H]([C@H](OC(=O)c3ccccc3)[C@]3(O)C[C@H](OC(=O)[C@H](O)[C@@H](NC(=O)c4ccccc4)c4ccccc4)C(C)=C1C3(C)C)[C@]1(OC(C)=O)CO[C@@H]1C[C@@H]2O [Paclitaxel]" metric=Tmax endpointunit=h obsvalue=1.2

* * *

# assaySummary: Paclitaxel pharmacokinetics in rats after single oral dose with Compound A
# conditionNotes: rat, in vivo, 30 mg/kg
metric: AUC(0-t) (ng·h/mL)

samplesmiles=CC(=O)O[C@H]1C(=O)[C@@]2(C)[C@H]([C@H](OC(=O)c3ccccc3)[C@]3(O)C[C@H](OC(=O)[C@H](O)[C@@H](NC(=O)c4ccccc4)c4ccccc4)C(C)=C1C3(C)C)[C@]1(OC(C)=O)CO[C@@H]1C[C@@H]2O endpointunit=ng·h/mL obsvalue=6640

* * *

# assaySummary: clinical
# conditionNotes: human, in vivo, po, 120 mg/m2
metric: Vd/F (L)

compound="CC(=O)O[C@H]1C(=O)[C@@]2(C)[C@H]([C@H](OC(=O)c3ccccc3)[C@]3(O)C[C@H](OC(=O)[C@H](O)[C@@H](NC(=O)c4ccccc4)c4ccccc4)C(C)=C1C3(C)C)[C@]1(OC(C)=O)CO[C@@H]1C[C@@H]2O [Paclitaxel]" obsvalue=4040

* * *

# assaySummary: in vivo
# conditionNotes: dog, po, 6 mg/kg, Tmax, dogs, Fed, paclitaxel 6 mg/kg with Compound A 3 mg/kg, single oral dose
metric: Tmax (min)

samplesmiles=CC(=O)O[C@H]1C(=O)[C@@]2(C)[C@H]([C@H](OC(=O)c3ccccc3)[C@]3(O)C[C@H](OC(=O)[C@H](O)[C@@H](NC(=O)c4ccccc4)c4ccccc4)C(C)=C1C3(C)C)[C@]1(OC(C)=O)CO[C@@H]1C[C@@H]2O obsvalue=42

* * *

# assaySummary: clinical
# conditionNotes: human, in vivo, po, 120 mg/m2
metric: half-life (min)

molecule="CC(=O)O[C@H]1C(=O)[C@@]2(C)[C@H]([C@H](OC(=O)c3ccccc3)[C@]3(O)C[C@H](OC(=O)[C@H](O)[C@@H](NC(=O)c4ccccc4)c4ccccc4)C(C)=C1C3(C)C)[C@]1(OC(C)=O)CO[C@@H]1C[C@@H]2O [Paclitaxel]" obsvalue=1320

* * *

# assaySummary: clinical
# conditionNotes: human, in vivo, po, 300 mg/m2
metric: MRT inf (h)

samplesmiles=CC(=O)O[C@H]1C(=O)[C@@]2(C)[C@H]([C@H](OC(=O)c3ccccc3)[C@]3(O)C[C@H](OC(=O)[C@H](O)[C@@H](NC(=O)c4ccccc4)c4ccccc4)C(C)=C1C3(C)C)[C@]1(OC(C)=O)CO[C@@H]1C[C@@H]2O obsvalue=16.2

* * *

# assaySummary: clinical
# conditionNotes: human, in vivo, po, 120 mg/m2
metric: MRT inf (h)

compound="CC(=O)O[C@H]1C(=O)[C@@]2(C)[C@H]([C@H](OC(=O)c3ccccc3)[C@]3(O)C[C@H](OC(=O)[C@H](O)[C@@H](NC(=O)c4ccccc4)c4ccccc4)C(C)=C1C3(C)C)[C@]1(OC(C)=O)CO[C@@H]1C[C@@H]2O [Paclitaxel]" obsvalue=17

* * *

# assaySummary: clinical
# conditionNotes: human, in vivo, po, 240 mg/m2
metric: CL renal

samplesmiles=CC(=O)O[C@H]1C(=O)[C@@]2(C)[C@H]([C@H](OC(=O)c3ccccc3)[C@]3(O)C[C@H](OC(=O)[C@H](O)[C@@H](NC(=O)c4ccccc4)c4ccccc4)C(C)=C1C3(C)C)[C@]1(OC(C)=O)CO[C@@H]1C[C@@H]2O obsvalue="40 mL/min"

* * *

# assaySummary: clinical
# conditionNotes: human, in vivo, po, 300 mg/m2
metric: Cmax (ng/mL)

molecule="CC(=O)O[C@H]1C(=O)[C@@]2(C)[C@H]([C@H](OC(=O)c3ccccc3)[C@]3(O)C[C@H](OC(=O)[C@H](O)[C@@H](NC(=O)c4ccccc4)c4ccccc4)C(C)=C1C3(C)C)[C@]1(OC(C)=O)CO[C@@H]1C[C@@H]2O [Paclitaxel]" metric=Cmax obsvalue=920

The measured values listed here are drawn from patent US20180207148A1.
